experiment: Inhibition of yeast chymotrypsin-like 20S proteasome using suc-LLVY-AMC as substrate pretreated for 1 hr followed by substrate addition measured every 2 mins for 1 hr by fluorescence assay; design: species or system Saccharomyces cerevisiae
VALUE_TYPE: IC50 (µM)

| TEST_SMILES | VALUE_UNITS | NUMERIC_RESULT |
| --- | --- | --- |
| Nc1ncc(/C=C/CNC(=O)c2ccc(Br)[nH]2)[nH]1 | µM | 27 |

[P] Nc1nc(/C=C/CNC(=O)c2cc(Br)c[nH]2)c[nH]1
[Q] N=C1N[C@@H](O)[C@@]2(N1)[C@@H](Cl)[C@H](CN)[C@H]1CN3C(=O)c4ccc(Br)n4[C@@H]4NC(=N)N[C@@]43[C@@H]12
[R] NC1=N[C@@]23CCCN2C(=O)c2[nH]cc(Br)c2[C@H]3N1
Enquiry: Order the records by IC50, with each subsequent value no larger than the one before. Reply: labels, ordered per the request.
Return: R, P, Q
(R: 69 µM, P: 23 µM, Q: 9.2 µM)
